Values were extracted from PubChem BioAssay.

experiment: SK-BR-3 cell growth inhibitors, pilot screen, 24 h, human (AID 572); settings: SK-BR-3 viability, CellTiter-Glo luminescence, at 10 µM, active compounds read low;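 further: compound exposure lasted between 18 and 24 h rather than exactly 24 h; 100% = carrier-treated control wells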
REPORTED METRIC: viability (%)
Give the number; % is assumed, so skip it.

[
  {
    "COMPOUND": "COc1ccc(/C(O)=C2\\C(=O)C(=O)N(c3cc(C)on3)C2c2ccccc2OC)cc1 (stereo unspecified)",
    "viability [%]": 105
  },
  {
    "COMPOUND": "CCOc1cccc2cc(C(=O)N3CCN(C/C=C/c4ccccc4)CC3)c(=O)oc12",
    "viability [%]": 89
  }
]

q: Tell me the measured viability of CCOc1cc2[nH]c(=O)n(CCCCC(=O)NCc3ccco3)c(=O)c2cc1OCC , please.
a: 88

q: Also check Cc1nc2ncnn2c(C)c1CCC(=O)NCCCN1CCN(c2cccc(Cl)c2)CC1
a: 78

q: Also check O=C(NCCCN1CCCC1=O)C1CCN(S(=O)(=O)N2CCOCC2)CC1
a: 90

q: Also check COC(=O)c1[nH]c2ccc(C)cc2c1NC(=O)CN1CCC(C)CC1
a: 101

q: Also check COc1ccc(-c2ccc(-c3noc(-c4ccccc4OC)n3)c(OC)n2)cc1
a: 62

q: Also check Oc1c(Cl)cc(Cl)cc1Sc1cc(Cl)cc(Cl)c1O
a: 143

q: Also check O=C(C1CCCO1)N1CCN(S(=O)(=O)c2ccccc2)CC1 (stereo unspecified)
a: 79

q: Also check CC1CCCC(C)N1C(=O)CSc1nnc(-c2cccs2)o1 (stereo unspecified)
a: 92

q: Also check COc1cccc(-n2c(C)nc3c(cnn3-c3ccc(Cl)cc3)c2=O)c1
a: 92.5

q: Also check CCOC(=O)c1[nH]c(CSc2nnc(-c3ccncc3)n2CCOC)c(C(=O)OCC)c1C
a: 94

q: Also check CC1(C)Cc2c(c(=S)nc(-c3ccccc3)n2CCO)CO1
a: 111
